B1: TFE3 (parent)
chain: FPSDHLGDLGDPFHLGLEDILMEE

Variants of: B1
Assay: protein stability index of a GFP-peptide fusion (GPS, HEK-293T) (PSI 1-6); higher = more stable;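 also: lentivirally expressed fusions sorted by FACS into six bins by GFP to DsRed ratio, PSI derived from sequencing read proportions per bin multiplied by bin number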
Details: c terminus: a fixed tail appended
Parameter protein stability index: see the listing below.

Solved cases (4 shown):
FPSAHLGDLGDPFHLGLEDILMEE : 2.26
FPSDHLMDLGDPFHLGLEDILMEE : 3.29
FPSDTLGDLGDPFHLGLEDILMEE : 3.88
FPSDHLGDLGDDFHLGLEDILMEE : 4.35

In: Recorded protein stability index of `FPSDHHGDLGDPFHLGLEDILMEE` , please.
Out: 3.98

Data origin, for the record: the supplement of paper PMC10567573
